Where do these numbers come from? They come from the kinase profiling compilation of Christmann-Franck et al. (2016).

Let's look at some compounds and their measured residual activity.
target: HIPK2 (human); test: radiometric filter-binding kinase assay; conditions: compound 10.0 µM

>  <Compound Structure String>
CCCC(CCC)C(=O)O

>  <residual activity (%)>
86

$$$$
>  <Compound Structure String>
O=C1NC(=S)N[C@@H]1Cc1c[nH]c2ccccc12

>  <residual activity (%)>
92

$$$$
>  <Compound Structure String>
NC(=O)Nc1ccc2c(c1)/C(=C/c1cc(-c3cccnc3)c[nH]1)C(=O)N2

>  <residual activity (%)>
1

$$$$
>  <Compound Structure String>
NC(=O)c1c(NC(=O)C2CC2)sc2c1CCCC2

>  <residual activity (%)>
52

$$$$
>  <Compound Structure String>
N#Cc1c(O)c2c(-c3ccc(-c4ccccc4O)cc3)csc2[nH]c1=O

>  <residual activity (%)>
99

$$$$
>  <Compound Structure String>
Cc1ccc(-c2ccc3c(ccc4sc5c(c43)NC[C@@H](C)NC5=O)n2)cn1

>  <residual activity (%)>
78

$$$$
